Source: patent US20260217672A1

As shown below, each of these compounds has a reported MIC value.
Tested on: Klebsiella pneumonia ATCC 43816
assay-info: Minimal Inhibitory Concentration (MIC) broth dilution assay
Type: cell-based
condition: Klebsiella pneumoniae, ATCC43816, 20 h, read-out: MIC Klebsiella pneumoniae ATCC43816
readout-name: MIC (µg/mL)

>>> reported("NCCCNCc1ccc(C(=O)Nc2ccc(S(=O)(=O)N3CCN(c4cc(Cl)cc(C(F)(F)F)c4)CC3)cc2)cc1 [Example 004]")
3.8
>>> reported("N#Cc1cc(Cl)nc(N2CCN(S(=O)(=O)c3ccc(NC(=O)c4cccc(CNCCCN)c4)cc3)CC2)c1 [Example 020]")
2.5
>>> reported("NCCCNC1Cc2ccc(C(=O)Nc3ccc(S(=O)(=O)N4CCN(c5cc(C(F)(F)F)cc(Cl)n5)CC4)cc3)cc2C1 (stereo not shown) [Example 061]")
1.1
>>> reported("COc1ccc(CN2CCC3CN(C)CC32)cc1C(=O)Nc1ccc(S(=O)(=O)N2CCN(c3cc(C(F)(F)F)cc(Cl)n3)CC2)cc1 (stereo not shown) [Example 063]")
4.3
>>> reported("O=C(c1cnn(C2CNC2)c1)N1CCc2cc(S(=O)(=O)N3CCN(c4cc(C(F)(F)F)cc(Cl)n4)CC3)ccc21 [Example 036]")
7.4
>>> reported("NCCCNCc1cccc(C(=O)Nc2ccc(S(=O)(=O)N3CCN(c4cc(C(F)(F)F)cc(Cl)n4)CC3)cc2O)c1 [Example 031]")
3.9
>>> reported("COc1ccc(CN2CCC3CNCC32)cc1C(=O)Nc1ccc(S(=O)(=O)N2CCN(c3cc(C(F)(F)F)cc(Cl)n3)CC2)cc1 (stereo not shown) [Example 087]")
2.5
>>> reported("NCCCNC1CCc2ccc(C(=O)Nc3ccc(S(=O)(=O)N4CCN(c5cc(C(F)(F)F)cc(Cl)n5)CC4)cc3)cc21 (stereo not shown) [Example 062]")
4.2
>>> reported("O=C(Nc1ccc(S(=O)(=O)N2CCN(c3cc(C(F)(F)F)cc(Cl)n3)CC2)cc1)c1cccc(CNCCCN2CCNCC2)c1 [Example 078]")
5.7
>>> reported("O=C(Nc1ccc(S(=O)(=O)N2CCN(c3cc(C(F)(F)F)cc(Cl)n3)CC2)cc1)c1cccc(N2CCNCC2)c1 [Example 054]")
0.95
>>> reported("O=C(Nc1ccc(S(=O)(=O)N2CCN(c3cc(C(F)(F)F)cc(Cl)n3)CC2)cc1)c1cccc(CNCCCN(CCO)CCO)c1 [Example 080]")
2.9
>>> reported("NCC12CC1CN(Cc1cccc(C(=O)Nc3ccc(S(=O)(=O)N4CCN(c5cc(C(F)(F)F)cc(Cl)n5)CC4)cc3)c1)C2 (stereo not shown) [Example 082]")
1.4
>>> reported("O=C(CNCCO)N1CCc2cc(S(=O)(=O)N3CCN(c4cc(C(F)(F)F)cc(Cl)n4)CC3)ccc21 [Example 041]")
8.3

###

As shown below, each of these molecules has a reported MIC value.
Test system: Klebsiella pneumonia ATCC 43816
assay-info: Minimal Inhibitory Concentration (MIC) broth dilution assay
Format: cell-based
condition: Klebsiella pneumoniae, ATCC43816, 20 h, read-out: MIC Klebsiella pneumoniae ATCC43816
Procedure: The antibacterial activity of the compounds of the present invention was evaluated against the commonly used quality control strain Escherichia coli ATCC 25922 and the rifampin-resistant mutant strain Klebsiella pneumonia ATCC 43816. […] The in vitro potency of compounds to inhibit Escherichia coli (ATCC 25922) and Klebsiella pneumonia (ATCC 43816) growth was assessed by the MIC (Minimal Inhibitory Concentration) broth dilution method. […]
readout-name: MIC (µg/mL)

>>> reported("NCCCNCc1ccc(C(=O)Nc2ccc(S(=O)(=O)N3CCN(c4nccc(C(F)(F)F)n4)CC3)cc2)cc1")
3.6
>>> reported("NCCCNCc1cncc(C(=O)Nc2ccc(S(=O)(=O)N3CCN(c4cc(C(F)(F)F)cc(Cl)n4)CC3)cc2)c1")
1.9
>>> reported("COc1cc(NC(=O)c2cccc(CNCCCN)c2)ccc1S(=O)(=O)N1CCN(c2cc(C(F)(F)F)cc(Cl)n2)CC1")
4
>>> reported("CC1CN(S(=O)(=O)c2ccc(NC(=O)c3cccc(CNCCCN)c3)cc2)CCN1c1cc(C(F)(F)F)cc(Cl)n1 (stereo not shown)")
3.9
>>> reported("Cn1cc2c(n1)CN(C(=O)Nc1ccc(S(=O)(=O)N3CCN(c4cc(C(F)(F)F)cc(Cl)n4)CC3)cc1)C2")
7.1
>>> reported("Cn1ncc2c1CN(C(=O)Nc1ccc(S(=O)(=O)N3CCN(c4cc(C(F)(F)F)cc(Cl)n4)CC3)cc1)C2")
3.6
>>> reported("NCCCNCc1ccnc(C(=O)Nc2ccc(S(=O)(=O)N3CCN(c4cc(C(F)(F)F)cc(Cl)n4)CC3)cc2)c1")
3.8
